Tested on: M. mycetomatis genome strain MM55
experiment notes: CLSI M38-A2 based in vitro susceptibility screening (XTT or resazurin), growth at fixed concentration
Format: cell-based, Madurella mycetomatis
details: Madurella mycetomatis, 25 uM, replicate A, MM55; read-out: Percentage survival at 25um, 25 um A
So basically: activity at 25 µM at 70% or higher? That is satisfied. Lower than 70%? That is not satisfied.

Field: example entries. Status: answers known.
compound: CCC[C@H](NC(=O)[C@@H]1[C@H]2CCC[C@H]2CN1C(=O)[C@@H](NC(=O)[C@@H](NC(=O)c1cnccn1)C1CCCCC1)C(C)(C)C)C(=O)C(=O)NC1CC1
test target: M. mycetomatis genome strain MM55
assigned label: satisfied
--
compound: CCCCc1ccc(-c2nc(C)c(C(=O)OC)s2)cc1
test target: M. mycetomatis genome strain MM55
assigned label: satisfied
--
compound: CC(C)(C)c1ccc(C(Cn2cccc(C(F)(F)F)c2=O)NC2Cc3ccccc3C2)cc1 (centres unmarked)
test target: M. mycetomatis genome strain MM55
assigned label: not satisfied
--
compound: CN(O)C(=O)c1cc2c(CN3CCC[C@H]3C(N)=O)cn(Cc3ccc(F)cc3)c2cn1
test target: M. mycetomatis genome strain MM55
assigned label: satisfied

Given CC(=O)Oc1ccccc1C(=O)Nc1ncc([N+](=O)[O-])s1 , state whether its activity at 25 µM is at least 70%. satisfied

Given CCn1cc(C(=O)O)c(=O)c2cc(F)c(N3CCNC(C)C3)c(F)c21 (centres unmarked) , state whether its activity at 25 µM is at least 70%. satisfied

Given CSc1ccc2c(c1)C(N1CCN(C)CC1)Cc1ccccc1S2 (centres unmarked) , state whether its activity at 25 µM is at least 70%. not satisfied

====

Test system: M. mycetomatis genome strain MM55
experiment notes: CLSI M38-A2 based in vitro susceptibility screening (XTT or resazurin), growth at fixed concentration
Assay type: cell-based, Madurella mycetomatis
details: Madurella mycetomatis, 100 uM, mean of three replicates; read-out: Percentage survival at 100um, 100 uM mean
The entries below come with measured activity at 100 µM values attached.
Express the result in % but write the number alone.

A selection of reference data follows.
molecule: CC(C)Cn1c(=O)n(C)c(=O)c2c(-c3cncn3C)n(Cc3cccc4ccccc34)nc21
activity at 100 µM [%]: 3.57
//
molecule: OCCC#Cc1nc(-c2ccc(F)cc2)c(-c2ccncc2)n1CCCc1ccccc1
activity at 100 µM [%]: 57.6
//
molecule: C[C@@]1(O)[C@H](O)[C@@H](CO)O[C@H]1n1ccc2c(N)ncnc21
activity at 100 µM [%]: 86.2
//
molecule: O=C(NC1CCCc2c1[nH]c1ccc(Cl)cc21)c1ccccn1 (stereo not shown)
activity at 100 µM [%]: -0.446
//
molecule: CCc1ccccc1OCCN1CCCCCC1
activity at 100 µM [%]: 61.5

Consider the molecule shown here: O=S(=O)(NCB(O)O)c1ccc(-c2nnn[nH]2)cc1C(F)(F)F What is its recorded activity at 100 µM? 88.5

Consider the molecule shown here: Nc1cc(-c2nc3ccccc3[nH]2)n[nH]c1=O What is its recorded activity at 100 µM? 95.6

Consider the molecule shown here: Cc1cccc(C)c1C(=O)Nc1nc(-c2ccccn2)cc2ccccc12 What is its recorded activity at 100 µM? 86

Consider the molecule shown here: O=c1[nH]c(=O)n(Cc2cccc(Oc3ccccc3)c2)cc1Nc1ccccc1 What is its recorded activity at 100 µM? 71.8

Consider the molecule shown here: CCCCc1ccc(-c2cc(C(=O)O)cc(-c3ccc(Cl)cc3)n2)cc1 What is its recorded activity at 100 µM? 4.07

Consider the molecule shown here: N#Cc1c(F)c(Cl)c(NCc2ccccc2)c(C#N)c1F What is its recorded activity at 100 µM? 2.09

Consider the molecule shown here: O=C(O)C(Cc1c[nH]c2ccccc12)N1C(=O)c2ccccc2C1=O (stereo not shown) What is its recorded activity at 100 µM? 96.8

Consider the molecule shown here: O=c1nc(N2CCN(CC3CCCCC3)CC2)sc2c([N+](=O)[O-])cc(C(F)(F)F)cc12 What is its recorded activity at 100 µM? 82.7

The measured values listed here are drawn from paper PMC8815882.
